experiment.summary: Liver microsomal stability assay
Type: in vitro ADME
measurement.setup: both sexes, human, pooled human liver microsomes; read-out: HLM Stability t½
assay.endpoint: half-life at 1 μM (h)

Guide cases for half-life at 1 μM, answers given:
>>> readout_number("Cc1cc(F)cc(-c2cncc(-c3nc4cccc(C)c4[nH]3)c2N2CC[C@H](N)C2)c1 [Compound 2-182]")
0.883
>>> readout_number("Cc1ccnc2nc(-c3cncc(-c4ccc(F)c(C(F)(F)F)c4)c3N3CC[C@](C)(N)C3)[nH]c12 [Compound 2-191]")
2.32

(I) COc1cc(F)cc(-c2cncc(-c3nc4c(C)cccc4[nH]3)c2N2CC[C@H](N)C2)c1 [Compound 2-184]
(II) Cc1ccnc2nc(-c3cncc(-c4ccc(F)c(Cl)c4)c3N3CC[C@](C)(N)C3)[nH]c12 [Compound 2-192]
(III) Cc1cc(-c2cncc(-c3nc4c(F)cccc4[nH]3)c2N2CC[C@](C)(N)C2)ccn1 [Compound 2-178]
(IV) Cc1cc(-c2cncc(-c3nc4nccc(C)c4[nH]3)c2N2CC[C@](C)(N)C2)ccc1F [Compound 2-188]
rank_up(items): orders items by reported half-life at 1 μM in ascending numerical order. Kindly provide the labels arranged according to the requested ordering.
IV, I, II, III
(IV: 0.55 h, I: 0.967 h, II: 1.65 h, III: 3.85 h)
